- target: CD28 (Homo sapiens, UniProt P10747)
- test.protocol: Jurkat/IL2 + CHO/OKT3 +/- PD-L1 reporter assay: PD-L1-dependent CD28 costimulation
- Format: cell-based
- Parameters: host or cells: Jurkat cells expressing an IL-2-luciferase reporter
- applied.conditions: Table E13; Jurkat/IL2 + CHO/OKT3/PD-L1; 5.0 nM
parameter.measured: Relative Luciferase Units (RLU), CD80 Cone 5.0 nM
Lab book: enter the figure in RLU, no units written.

QUERY: Name the reported Relative Luciferase Units (RLU), CD80 Cone 5.0 nM value associated with the molecule H18Y/E35D/M47L/V68M/E95V/L97Q (protein, UniProt P33681 35-288, looked up, variant H18Y E35D M47L V68M E95V L97Q) T-lymphocyte activation …: VIHVTKEVKEVATLSCGYNVSVEELAQTRIYWQKDKKMVLTMMSGDLNIWPEYKNRTIFDITNNLSIMILALRPSDEGTYECVVLKYEKDAFKRVHQAEVTLSVKADFPTPSISDFEIPTSNIRRIICSTSGGFPEPHLSWLENGEELNAINTTVSQDPETELYAVSSKLDFNMTTNHSFMCLIKYGHLRVNQTFNWNTTKQEHFPDNLLPSWAITLISVNGIFVICCLTYCFAPRCRERRRNERLRRESVRPV
RESULT: 225

Every entry's value here was drawn from patent US20220177587A1.
